- procedureText: Solubility of PQQ in water solution
- Assay type: physicochemical
- studyConditions: 20 °C, aqueous buffer; 20-25 degree C., pH 7.0 water solution
quantityKind: solubility

Requested read-out: solubility. Entry: O=C(O)c1cc(C(=O)O)c2c(n1)C(=O)C(=O)c1cc(C(=O)O)[nH]c1-2
1000 to 2000 µg/mL
